# Assay Target: human orexin type 2 receptor (hOX2R) (Homo sapiens, UniProt O43614)
# Construct: expressed in transfected cells
# Assay Notes: Orexin type 2 receptor agonist activity, intracellular Ca2+ (FLIPR TETRA)
# Type: cell-based
# Setup Conditions: CHO cells expressing hOX2R; Ca2+ fluorescence area; read-out: hOx2 pEC50 (converted)
Result Type: EC50

Illustrative cases are given below, each with its answer.
- Compound: "CCS(=O)(=O)N[C@H]1CCN2C(=O)N(C)CCCCCc3ccccc3-c3cccc(c3)C[C@@H]12 [Compound A1-10]"
  EC50: "0.1 to 1 nM"
- Compound: "CCS(=O)(=O)N[C@@H]1CCN2C(=O)NCCCCCc3ccccc3-c3cccc(c3)C[C@H]12 (single isomer, unassigned) [Compound A1-43]"
  EC50: "100 to 1000 nM"

Ask: What value of EC50 has been reported for the following compound? CCS(=O)(=O)N[C@H]1CCN2C(=O)NCCCCCc3ccccc3-c3cccc(c3)C[C@@H]12 (single isomer, unassigned) [Compound A1-42]
Result: 0.1 to 1 nM

Ask: Fill blank: measured EC50 of the compound CS(=O)(=O)NC1CCCN2C(=O)CCCCc3ccccc3-c3cccc(c3)CC12 (racemic) [Compound A1-1] is ____.
Result: 100 to 1000 nM

Ask: Fill in the blank: the reported EC50 of CCS(=O)(=O)NC1CCN2C(=O)CCC/C=C/Cc3ccccc3-c3cccc(c3)CC12 (racemic) [Compound A1-41] is ____.
Result: 10 to 100 nM

Ask: Given the compound CCS(=O)(=O)N[C@H]1CCCN2C(=O)CCOc3ccccc3-c3cccc(c3F)C[C@@H]12 [Compound A1-100] , what is its reported EC50?
Result: 1 to 10 nM

Ask: I would be grateful if you could share the reported EC50 for CS(=O)(=O)N[C@@H]1CCCN2C(=O)CCCOc3ccccc3-c3cccc(c3)C[C@H]12 (racemic) [Compound A1-6] .
Result: 10 to 100 nM

###

# Assay Target: human orexin type 2 receptor (hOX2R) (Homo sapiens)
# Construct: expressed in transfected cells
# Sequence (O43614 1-444): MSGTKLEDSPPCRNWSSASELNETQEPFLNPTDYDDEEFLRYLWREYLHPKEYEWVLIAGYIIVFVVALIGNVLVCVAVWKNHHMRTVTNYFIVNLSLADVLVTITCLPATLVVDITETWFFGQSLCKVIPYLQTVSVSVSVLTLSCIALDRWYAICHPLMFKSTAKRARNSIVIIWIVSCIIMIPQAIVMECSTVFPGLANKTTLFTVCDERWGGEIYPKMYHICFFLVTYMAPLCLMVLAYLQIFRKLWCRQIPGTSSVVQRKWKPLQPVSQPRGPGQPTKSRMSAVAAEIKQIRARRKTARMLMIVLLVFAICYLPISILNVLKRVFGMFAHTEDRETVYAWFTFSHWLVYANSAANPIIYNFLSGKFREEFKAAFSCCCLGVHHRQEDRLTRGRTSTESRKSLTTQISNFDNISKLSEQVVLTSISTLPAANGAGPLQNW
# Assay Notes: Orexin type 2 receptor agonist activity, intracellular Ca2+ (FLIPR TETRA)
# Type: cell-based
# Setup Conditions: CHO cells expressing hOX2R; Ca2+ fluorescence area; read-out: hOx2 pEC50 (converted)
The molecules listed here are annotated with their EC50.

Please review the following examples before continuing.
- Molecule: "CCS(=O)(=O)NC1CCN2C(=O)N(C)CCCCCc3ccccc3-c3cccc(c3)CC12 (racemic) [Compound A1-18]"
  Assay Target: "human orexin type 2 receptor (hOX2R) (Homo sapiens)"
  EC50: "1 to 10 nM"
- Molecule: "O=C1CCOc2ccccc2-c2cccc(c2F)C[C@H]2[C@@H](NS(=O)(=O)C(F)F)[C@@H](F)CN12 [Compound A1-96]"
  Assay Target: "human orexin type 2 receptor (hOX2R) (Homo sapiens)"
  EC50: "10 to 100 nM"
- Molecule: "CS(=O)(=O)NC1CCCN2C(=O)NCCOc3ccccc3-c3cccc(c3)CC12 (racemic) [Compound A1-15]"
  Assay Target: "human orexin type 2 receptor (hOX2R) (Homo sapiens)"
  EC50: "1 to 10 nM"
- Molecule: "CCS(=O)(=O)NC1CCN2C(=O)CCCCCCc3c(F)cc(F)cc3-c3cccc(c3)CC12 (racemic) [Compound A1-29]"
  Assay Target: "human orexin type 2 receptor (hOX2R) (Homo sapiens)"
  EC50: "100 to 1000 nM"
- Molecule: "CCS(=O)(=O)NC1CCN2C(=O)OCCCCCc3ccccc3-c3cccc(c3)CC12 (racemic) [Compound A1-54]"
  Assay Target: "human orexin type 2 receptor (hOX2R) (Homo sapiens)"
  EC50: "10 to 100 nM"

Ask: # EC50 lookup, item CCS(=O)(=O)NC1CCN2C(=O)CC/C=C/Cc3ccccc3-c3cccc(c3)CC12 (racemic) [Compound A1-53]
Result: 10 to 100 nM

Ask: For CCS(=O)(=O)NC1CCN2C(=O)NCCOc3ccccc3-c3cccc(c3)CC12 (racemic) [Compound A1-30] , what is its reported EC50?
Result: 10 to 100 nM

Ask: Any idea what EC50 was measured for CS(=O)(=O)NC1CCCN2C(=O)NCCCCCc3ccccc3-c3cccc(c3)CC12 (racemic) [Compound A1-27] ?
Result: 1 to 10 nM

Ask: Query (molecule): CS(=O)(=O)N[C@H]1CCCN2C(=O)CCCOc3ccccc3-c3cccc(c3)C[C@@H]12 [Compound A1-64] ; field requested: EC50
Result: 10 to 100 nM

Ask: Could you share which EC50 value was measured for CS(=O)(=O)NC1CCCN2C(=O)CCCCCCc3ccccc3-c3cccc(c3)CC12 (racemic) [Compound A1-28] ?
Result: 10 to 100 nM

Ask: Given the entry COc1c2cccc1-c1ccccc1OCCN(C)C(=O)N1C[C@H](F)[C@H](NS(=O)(=O)CF)[C@@H]1C2 [Compound A1-86] , report its measured EC50.
Result: 1 to 10 nM

Ask: Consider the molecule CS(=O)(=O)N[C@H]1CCCN2C(=O)NCCOc3ccccc3-c3cccc(c3)C[C@@H]12 [Compound A1-4] and give its measured EC50.
Result: 100 to 1000 nM

Ask: Sample CS(=O)(=O)N[C@H]1CCCN2C(=O)NCCOc3ccccc3-c3cccc(c3F)C[C@@H]12 [Compound A1-73] — what was its EC50?
Result: 1 to 10 nM

Ask: Which value of EC50 has been reported for CN(C)S(=O)(=O)N[C@H]1CCCN2C(=O)CCCc3ccccc3-c3cccc(c3)C[C@@H]12 [Compound A1-79] in the records?
Result: 1 to 10 nM

Ask: Item CCS(=O)(=O)NC1CCN2C(=O)NC/C=C/Cc3ccccc3-c3cccc(c3)CC12 (racemic) [Compound A1-51] has what recorded EC50?
Result: 10 to 100 nM
